Data credit: the nanobody polyreactivity screen of Harvey et al. (2022)

assay: yeast display, Sf9 membrane polyspecificity reagent, FACS + sequencing; frameworks hold sequencing errors
READOUT NAME: polyreactivity (PSR sort gate)

INSERT INTO assay_data (polymer_sequence, result) VALUES
  ('QVQLVESGGGLVQAGGSLRLSCAASGSIFSYNAMGWYRKAPGKERELVAAIRASGGDTYYADSVKGRFTISRDNAKNTVYLQMNSLKPEDTAVYYCAARTYAHHYASHGYWGQGTQVTVSS', 'low polyreactivity'),
  ('QVQLVESVGGLVQAGGSLRLSCAASAFNFDYNAMGWYRQAPGKERELVAVISSSGSRTYYADSVKGRFTISRDNAKNTVYLQMNSLKPEDTAVYYCAAARIGTLDYWGQGTQVTVSS', 'high polyreactivity'),
  ('QVQRVESGGGLVQAGCSLRLSCAASGLIFTRYDMGWNRPAPGKERELVAAISGDGGSTYYAESVKGRFTISRDNAKNTVYLQMNSLKPEDTAVYYCAADSARTPWDDYWGQGTQVTVSS', 'high polyreactivity'),
  ('HVQLQESGGGLVQAGGSLRLSCAASGYISHADEMGWYRQAPGKEHELVASISNGGSTNYADSVKGRFTISRDNAKNTVYLQMNSLKSEVTAVYYCAAWTGQVDFHYYWGQGTQVSVSS', 'low polyreactivity'),
  ('QLQLVESGGGLVQAGGSLRLSCAASGNNIVFYAMGRYRQAPGKERELVAAMTSGGSTNYADSVKGRFTISRDNAKNTVYLQMNSLKPEATAVYYCAARQWFAHRRWGGSRYDYWGQGTQGTVSS', 'low polyreactivity');

The measured polyreactivity (PSR sort gate) associated with QVQLVESGGGLVQAGGSLRLSCAASGSIFYWYAMGWYRQAPGKERELVAAITRAGSTNYADSVKGRFTISRDNAKNTVYLQMNSLKPEDTAVYYCAVAVTSYSSKKLYYWGQGTQVTVSS reads low polyreactivity

Form field polyreactivity (PSR sort gate), entry QVQLVESGGGLVQAGGSLRLSCAASGRIFWYYAVGWYRQAPGKERELVARISSSGGSTYYADSVKGRFTISRDNANNTVYLQMNSLKPEDTAVYYCAKERYSGSSRYPMDYWGQGTQVTVSS : high polyreactivity

Data point: QVQLVESGGGLVQAGGSLRLSCAASGRTSLYYAMGWYRQAPGKEREFVATITSGGSTNYADSVKGRFTISRDNAKNTVYLQMNSLKPEDTALYYCNARWRRGKTRYGYWGQGTQVNVSS ; polyreactivity (PSR sort gate) = high polyreactivity

Given item QVQLVESGGGLVQAGGSLRLSCAASGSTFGYYAMGWYRQAPGKERELVAAITGSGGRTYYADSVKGRFTISRDNAKNTVYLQMNSLKPEDTAVYYCAARTYRTEFAYGSWGQGTQVTVSS , the value recorded as its polyreactivity (PSR sort gate) is low polyreactivity

# polyreactivity (PSR sort gate) (sequence: QVQLVESGGRLVQAGGSLRLSCAASGFTFGAYAMGWYRQAPGKERELVATIRYSGDSTYYADSVKGRFTISRDNAKNTVYLQMNSLKPEDTAVSSCAAYSTEGGGSPDWFESFDYWGQGTQVTVSS ) is low polyreactivity
